# Assay System: T1, c-erbB-2 ECD with a Ser-Gly-His6 C-terminal fusion (UniProt P04626 23-652)
# T1 construct: extracellular domain; Expressed from CHO cells, IMAC purified; coupled to a CM5 chip, coated on plates, or biotinylated with NHS-LC-biotin; also called c-erbB-2 extracellular domain; biotinylated c-erbB-2 ECD
# Procedure Text: SPR BIAcore
Please provide measured koff for the entries that follow.

Binder	koff
C6ML3-A3 (scFv) scFv: QVQLLQSGAELKKPGESLKISCKGSGYSFTSYWIAWVRQMPGKGLEYMGLIYPGDSDTKYSPSFQGQVTISVDKSVSTAYLQWSSLKPSDSAVYFCARHDVGYCSSSDCAKWPEYFQHWGQGTLVTVSSGGGGSGGGGSGGGGSQSVLTQPPSVSAAPGQKVTISCSGSSSNIGNNYVSWYQQLPGTAPKLLIYGHTNRPAGVPDRFSGSKSGTSASLAISGFRSEDEADYYCASWDYTLSGWVFGGGTKLTVLG	0.0063 s⁻¹

Provide koff values for the following items, in order.
1. C6MH3-B21 (scFv, C6ML3-9 sFv, VH CDR3 library B mutant) scFv: QVQLLQSGAELKKPGESLKISCKGSGYSFTSYWIAWVRQMPGKGLEYMGLIYPGDSDTKYSPSFQGQVTISVDKSVSTAYLQWSSLKPSDSAVYFCARHDVGYCTTPLCAKWPEYFQHWGQGTLVTVSSGGGGSGGGGSGGGGSQSVLTQPPSVSAAPGQKVTISCSGSSSNIGNNYVSWYQQLPGTAPKLLIYGHTNRPAGVPDRFSGSKSGTSASLAISGFRSEDEADYYCASWDYTLSGWVFGGGTKLTVLG
2. C6MH3-B41 (scFv, C6ML3-9 sFv, VH CDR3 library B mutant) scFv: QVQLLQSGAELKKPGESLKISCKGSGYSFTSYWIAWVRQMPGKGLEYMGLIYPGDSDTKYSPSFQGQVTISVDKSVSTAYLQWSSLKPSDSAVYFCARHDVGYCTDRPCAKWPEYFQHWGQGTLVTVSSGGGGSGGGGSGGGGSQSVLTQPPSVSAAPGQKVTISCSGSSSNIGNNYVSWYQQLPGTAPKLLIYGHTNRPAGVPDRFSGSKSGTSASLAISGFRSEDEADYYCASWDYTLSGWVFGGGTKLTVLG

["0.00024 s⁻¹", "0.00027 s⁻¹"]
